assay: Mycobacterium tuberculosis growth inhibition, primary screen (AID 1259343); conditions: at 10 µM, active compounds read high
About 2,900 (47%) of roughly 6,200 compounds were called active. So high a share suggests a set chosen from earlier hits. This is one part of the list.
Endpoint: inhibition (%)
Express your answer in %, writing the number without its unit.

Known results for compounds:
# Compound, inhibition / %
data = [
    ("Nc1nc(CSc2nnc(C3CC3)n2C2CC2)nc(Nc2ccc(F)cc2)n1", -0.78),
    ("O=[N+]([O-])c1cnc(Nc2cccc(O)c2)c([N+](=O)[O-])c1", 75.9),
    ("CCOC(=O)C(C#N)=CNc1nc2c(s1)CC(C)CC2 (stereo unspecified)", 23.7),
    ("O=[N+]([O-])c1cnc(Nc2ccccc2O)c([N+](=O)[O-])c1", 26.1),
    ("C=CCSc1nnc(NC(=O)c2cc(Br)ccc2Cl)s1", 9.41),
    ("COc1ccccc1Nc1ncc([N+](=O)[O-])cc1[N+](=O)[O-]", 101),
    ("O=C(Cc1c(F)cccc1Cl)Nc1nc2c(s1)CCCC2", 95.5),
    ("CC1CCc2nc(NC(=O)c3ccc([N+](=O)[O-])s3)sc2C1 (stereo unspecified)", 102),
]

What does the data say about its inhibition? Entry: CC(C)NC(=O)CSc1nnc(Nc2ccccc2Cl)s1
78.8

What does the data say about its inhibition? Entry: COCCCNC(=O)CSc1nnc(Nc2ccccc2Cl)s1
80.1

What does the data say about its inhibition? Entry: O=C(Nc1nnc(SCc2ccc(F)cc2)s1)c1ccccc1Br
27.4

###

assay: Mycobacterium tuberculosis growth inhibition, primary screen (AID 1259343); settings: at 10 µM
Out of some 6,200 compounds screened, about 2,900 (47%) were called active. Rule as the data show it: active = inhibition above about 50%; inactive = the rest. The set was probably picked from earlier hits. The list shows a part of the results.
Permitted responses: 1.0 = active, 0.0 = inactive

Study these solved cases before continuing.
# Compound, Class
measured = [
    ("FC(F)(F)c1ccc(N2CCN(C(=S)NC3CC3)CC2)nc1", 0.0),
    ("O=C(Nc1nccs1)C1CCN(c2ccc(C(F)(F)F)cn2)CC1", 0.0),
    ("Cc1cc(=O)[nH]c(-n2nc(-c3cccs3)cc2NC(=O)C2CCCCC2)n1", 1.0),
    ("COc1ccc(F)cc1Oc1ccc2c(C3CC3)noc2n1", 0.0),
    ("COc1ccc(Oc2ccc3c(C4CC4)noc3n2)c(F)c1", 1.0),
    ("Cc1cc(Oc2ccc3c(C4CC4)noc3n2)ccc1F", 1.0),
]

Read the next record carefully.
Kindly provide the recorded test outcome for the following compound: COC(=O)c1cnc(Nc2nc(C(N)Cc3ccc(Cl)cc3)cs2)nc1C(F)(F)F (stereo unspecified)
1.0

###

experiment: Mycobacterium tuberculosis growth inhibition, primary screen (AID 1259343); conditions: at 10 µM, active compounds read high
About 2,900 (47%) of roughly 6,200 compounds were called active. The set was probably picked from earlier hits. Some of the results follow.
Parameter threshold = 50%. Response is 1 when inhibition meets or exceeds it, else 0.

# Compound, Class
records = [
    ("CC(C)(C)c1cc2nc(C(=O)O)cc(-c3cccc(F)c3)n2n1", 1),
]

Quick check: does CCOC(=O)C1C(=O)CC(O)(c2ccc(Br)cc2)CC1C=C(Cl)Cl (stereo unspecified) have inhibition greater than or equal to 50%?
0

Quick check: does O=C(COc1ccccc1)N1CCc2ccc(O)cc2C1 have inhibition greater than or equal to 50%?
1

Quick check: does COc1cc(/C=C/C(=O)Nc2cc(C)nn2-c2nc(C)c(C)c(=O)[nH]2)cc(OC)c1OC have inhibition greater than or equal to 50%?
1

# credit: PubChem BioAssay AID1259343
